Entries and their measured Kd follow.
- Experimental target: alpha-synuclein fibrils (UniProt P37840 1-140)
- Assay method text: SPR, captured mAb
Assay readout: Kd (µM)

Binder	Value measured
ACI-8032-6304F3-Ab1 (antibody, V domains shown, mouse hybridoma mAb; VH/VL only; also called 6304F3D12) VH: QVQLQQSGAELARPGASVKLSCKASGYTFTSYGVSWVKQRTGQGLEWIGEIYPRSGNTYYNEKFKGKATLTADKSSSTAYMELRSLTSEDSAVYFCASESYYGDYDWYFDVWGTGTTVTVSS VL: DVLMTQIPLSLPVSPGDQVSISCRSSQSIVHSNGNTYLEWYLQKPGQSPKPLIYKVSNRFSGVPDRFSGSGSGTDFTLKISRVEAEDLGVYYCFQGSHVPPTFGGGTKLEIK	0.0406
ACI-7087-4125E6-Ab1 (antibody, V domains shown, mouse hybridoma mAb; VH/VL only; also called 4125E6D5) VH: QVQLQQPGTELVKPGASVRLSCKASGYAFTSYWMHWVKQRPGQGLEWIGNINPSNGGTNYNEKFKNKATLTVDKSSSTAYMQLSGLTSEDSAVYYCATGLHYWGQGTTLTVSS VL: DIQMTQSPSSLSASLGERVTLTCRASQDIGNYLNWLQQEPDGTIKRLIYATSSLDSGVPKRFSGSRSGSDYSLTISSLESEDFVDYYCLQFASSPLTFGPGTKLELK	0.0507
ACI-8032-6307F1-Ab2 (antibody, V domains shown, mouse hybridoma mAb; VH/VL only; also called 6307F1H10) VH: QVQLQQSGAELARPGASVKLSCKASGYTFTSYGMSWVKQRTGQGLEWIGEIYPRSGNTYYNEKFKGKATLTSDKSSSTSYMELRSLTSEDSAVYFCASESYYGDYAWYFDVWGTGTTVTVSS VL: DVLMTQTPLSLPVSLGDQASISCRSSQSVVHSNGITYLEWYLQKPGQSPKLLIYKVSNRFSGVPDRFSGSGSGTYFTLKISRVEAEDLGVYYCFQGSHVPPTFGGGTKLEIK	0.026
